Item-by-item account of λabs
- System: double stranded DNA (dsDNA)
- assay-notes: Absorption/emission spectra of dyes with dsDNA
- Assay type: physicochemical
- experimental-context: absorption recorded at 25±2° C.
Field format: number, assumed nm, no unit text.

Use the examples below as a reference point.
[[record]]
chemical_structure = "COc1ccc2c(c1)S/C(=C\\c1cc[n+](C)c(N3CCOCC3)c1)N2C"
result_number = 448

[[record]]
chemical_structure = "COc1ccc2c(c1)S/C(=C\\c1cc[n+](C)c3ccccc13)N2C"
result_number = 510

[[record]]
chemical_structure = "CN1/C(=C/c2cc[n+](C)c(N3CCOCC3)c2)Sc2ccccc21"
result_number = 442


// below: λabs requested for another compound
query: Name the reported λabs value associated with the compound CN(C)c1cc(/C=C2\Sc3ccccc3N2C)cc[n+]1C
result: 443

Values were extracted from patent US20250019375A1.
